target.or.system: Glucose transporter (Leishmania mexicana)
test.description: ST_JUDE_LEISH: Cytotoxicity at 2uM final concentration against transgenic Leishmania Mexicana promastigotes LmGT2 that are glucose transport deficient and complemented with the L. Mexicana glucose transporter 2. Activity is measured by DNA content using SYBR green in vitro
Type: functional
measure: inhibition (%)
One number for each entry, in %.

Observe how each entry below is paired with its result.
{"compound": "Cc1cc(-c2ccc(NC(=O)N3CCc4cc(Br)c(N5CCN(C)CC5)cc43)cc2)ccc1C#N", "inhibition, %": 8.55}
{"compound": "CCc1c(C)c(C#N)c2nc3ccccc3n2c1NCc1ccco1", "inhibition, %": 2.13}
{"compound": "COc1ccc(-c2ccc(NC(=O)c3cccc(C#N)c3)cc2)cc1CN1CCCC(C(N)=O)C1 (stereo not given)", "inhibition, %": 5.2}

Quick batch: inhibition for everything below.
1. CCC[C@@H]([C@@H](CC1CCCCC1)C(=O)N[C@H](C(=O)Nc1nccs1)C(C)(C)SCCOCCOCC)N(O)C=O
2. O=C(/C=C/c1cccc2c1OCO2)Nc1ccnc2ccncc12

[5.39, 1.89]

---

target.or.system: Glucose transporter (Leishmania mexicana) (UniProt O61059)
test.description: ST_JUDE_LEISH: Cytotoxicity at 2uM final concentration against transgenic Leishmania Mexicana promastigotes LmGT2 that are glucose transport deficient and complemented with the L. Mexicana glucose transporter 2. Activity is measured by DNA content using SYBR green in vitro
Type: functional
measure: inhibition (%)
One number for each entry, in %.

Observe how each entry below is paired with its result.
{"compound": "COc1ccccc1C(=O)Nc1cccc(N2CCC(NCc3ccc(-n4cccn4)cc3)CC2)c1", "inhibition, %": 5.84}
{"compound": "Cc1cc(=NN=Cc2cccc(F)c2)c2cc(F)ccc2[nH]1", "inhibition, %": 4.81}
{"compound": "C=CC[C@H](C[C@H](O)[C@H](Cc1ccccc1)NC(=O)c1ccc(-c2cccnn2)cc1)C(=O)NC1CCCCC1", "inhibition, %": -1.31}
{"compound": "COc1ccc(-c2onc(C(F)(F)F)c2-c2ccc(Br)cc2)c(O)c1", "inhibition, %": 1.56}
{"compound": "O=C(/C=C/c1cc(C(F)(F)F)ccc1F)NCCCCCN1CCC(c2c[nH]c3ccccc23)CC1", "inhibition, %": 0.28}

Quick batch: inhibition for everything below.
1. COc1ccc(-n2nc(C)c3c2NC(=O)CC3c2ccccc2OCc2ccccc2F)cc1 (centres undefined)
2. N#Cc1ccc(-c2ccc(C(=O)NCCCCN3CCC(c4cc(Br)c5c(c4O)CCCC5)CC3)cc2)cc1
3. CO/C(=C\C=C\c1cc2cc(Cl)c(Cl)cc2[nH]1)C(=O)NC1CCN(CCOc2ccccc2)CC1
4. CCOc1cc(C(=O)N[C@@H](Cc2ccccc2)[C@H](O)CNC(C)(C)c2cccc(OC)c2)cc(N2CCCS2(=O)=O)c1

1. 9.27
2. -0.42
3. 0.9
4. 0.74

---

target.or.system: Solute carrier family 2, facilitated glucose transporter member 1 (Homo sapiens)
test.description: ST_JUDE_LEISH: Cytotoxicity at 2uM final concentration against transgenic Leishmania Mexicana promastigotes LmGLUT1 that are glucose transport deficient and complemented with the human glucose transporter GLUT1. Activity is measured by DNA content using SYBR green in vitro
Type: functional
measure: inhibition

Observe how each entry below is paired with its result.
{"compound": "Cc1cccc(CN2CCC(CNC(=O)c3cc4c(-c5ccccc5F)nn(C)c4s3)CC2)c1", "inhibition": "4.22%"}
{"compound": "CC1CCc2sc(-c3nnc(SC(C)C(=O)N4CCCC4)o3)cc2C1 (stereo not given)", "inhibition": "2.14%"}
{"compound": "COc1cc2nc(N3CCC(CCCC4CCNCC4)CC3)nc(NCc3ccccn3)c2cc1OC", "inhibition": "73.5%"}
{"compound": "CCCc1cc(=O)oc2cc(OC)c(C(=O)CC(C)C)c(OC)c12", "inhibition": "0.58%"}

Quick batch: inhibition for everything below.
1. Cc1cccc2nc(-c3ccc(-c4ccc(CN5CCCC(N)C5)cc4)cc3)[nH]c12 (stereo not given)
2. O=C(/C=C/c1ccc(Cl)c(Cl)c1)N1CCC(CN2CCC(c3nc4ccccc4n3CCCO)CC2)CC1
3. N=C(NCCc1ccc(Cl)c(Cl)c1)c1ccc2ccccc2c1
4. Cc1cc(-c2ccc3c(c2)CC[C@@H](N[C@@H](C)c2ccccc2)C3)cnc1N
5. O=C(NC1CCN(Cc2ccccc2O)C1)c1cccc(C(F)(F)F)c1 (stereo not given)
6. CC(=O)N[C@H](C(=O)Nc1ccc(-c2ccc(-c3nc4cc(C(F)(F)F)ccc4[nH]3)s2)cc1)C(C)C

8.17%
4.72%
3.61%
4.92%
0.25%
5.68%
